test system: A498; assay: NCI growth inhibition and cytotoxicity screen, Renal Cancer panel; conditions: Homo sapiens, A498, read-out: LC50
Form field: CC50 (one value per entry).

Some molecules with known CC50 results, for comparison:
{"columns": ["MOLECULE", "RESULT"],
 "data": [
  ["COc1cc(OC)cc(/C(C#N)=C/c2ccc3ccccc3n2)c1", "> 100 µM"],
  ["COc1cc(/C(C#N)=C\\c2cc3ccccc3s2)cc(OC)c1OC", "> 100 µM"],
  ["COc1cc(OC)cc(/C(C#N)=C/c2cnc3ccccc3c2)c1", "> 100 µM"]
]}

COc1cc(/C=C/c2nc3ccccc3s2)cc(OC)c1OC has a reported CC50 of 35.8 µM

Form field CC50, entry COc1cc(/C(C#N)=C/c2cnc3ccccc3c2)cc(OC)c1OC : > 100 µM

---

test system: U251; assay: NCI growth inhibition and cytotoxicity screen, CNS Cancer panel; conditions: Homo sapiens, U-251, read-out: LC50
MEASURED ENDPOINT: CC50

Solved entries (count: 5):
{"columns": ["MOLECULE", "CC50"],
 "data": [
  ["COc1cc(/C=C/c2cc3ccccc3o2)cc(OC)c1OC", "81.2 µM"],
  ["COc1cc(OC)cc(/C(C#N)=C/c2c[nH]c3ccccc23)c1", "> 100 µM"],
  ["COc1cc(/C(C#N)=C\\c2cc3ccccc3s2)cc(OC)c1OC", "> 100 µM"],
  ["COc1cc(/C=C/c2nc3ccccc3s2)cc(OC)c1OC", "> 100 µM"],
  ["COc1cc(OC)cc(/C(C#N)=C/c2ccc3ccccc3n2)c1", "> 100 µM"]
]}

The molecule COc1cc(OC)cc(/C(C#N)=C/c2cnc3ccccc3c2)c1 showed CC50 equal to > 100 µM

The molecule identified as COc1cc(/C(C#N)=C/c2cnc3ccccc3c2)cc(OC)c1OC registered its CC50 at > 100 µM

Input COc1cc(/C(C#N)=C/c2ccc3ccccc3n2)cc(OC)c1OC . Output CC50: 90.5 µM

---

test system: BT-549; test: NCI growth inhibition and cytotoxicity screen, Breast Cancer panel; conditions: Homo sapiens, BT-549, read-out: LC50
Listing of entries alongside the reported CC50.

Illustrative cases are given below, each with its answer.
{"columns": ["MOLECULE", "ASSAY TARGET", "RESULT"],
 "data": [
  ["COc1cc(/C=C/c2cc3ccccc3o2)cc(OC)c1OC", "BT-549", "79.5 µM"],
  ["COc1cc(OC)cc(/C(C#N)=C/c2c[nH]c3ccccc23)c1", "BT-549", "> 100 µM"],
  ["COc1cc(OC)cc(/C(C#N)=C/c2cnc3ccccc3c2)c1", "BT-549", "> 100 µM"]
]}

The reported CC50 of the compound COc1cc(/C(C#N)=C\c2cc3ccccc3s2)cc(OC)c1OC was > 100 µM

---

tested on: CAKI-1
MEASURED ENDPOINT: log10 of GI50 (log10 of the value in nM)
Values reflect log10 of reported GI50 (nM).

{"columns": ["COMPOUND", "ASSAY TARGET", "log10 of GI50"],
 "data": [
  ["COc1cc(/C(C#N)=C/c2cnc3ccccc3c2)cc(OC)c1OC [PNR-5-10]", "CAKI-1", 2.54],
  ["COc1cc(/C(C#N)=C/c2ccc3ccccc3n2)cc(OC)c1OC [PNR-4-90]", "CAKI-1", 1.83],
  ["COc1cc(/C=C/c2nc3ccccc3s2)cc(OC)c1OC [Formula (I)(d)]", "CAKI-1", -0.85]
]}

The reported log10 of GI50 value, CAKI-1, for COc1cc(OC)cc(/C(C#N)=C/c2c[nH]c3ccccc23)c1 [Formula (I)(b)] reads 1.54

I looked up COc1cc(/C=C/c2cc3ccccc3o2)cc(OC)c1OC [Formula (I)(c)] and its log10 of GI50 for CAKI-1 was -0.24

Field log10 of GI50 (CAKI-1), entry COc1cc(/C(C#N)=C\c2cc3ccccc3s2)cc(OC)c1OC [Formula (I)(a)] : 1.58

Value sought: log10 of GI50, system CAKI-1, item COc1cc(OC)cc(/C(C#N)=C/c2ccc3ccccc3n2)c1 [PNR-4-84] . Result: 2.50

Field log10 of GI50 (CAKI-1), entry COc1cc(OC)cc(/C(C#N)=C/c2cnc3ccccc3c2)c1 [PNR-4-85] : 2.35

---

test system: HOP-62; test: NCI growth inhibition and cytotoxicity screen, Lung Cancer panel; details: Homo sapiens, HOP-62, read-out: LC50
MEASURED ENDPOINT: CC50

Below are worked cases with known answers.
{"columns": ["MOLECULE", "RESULT"],
 "data": [
  ["COc1cc(/C(C#N)=C/c2cnc3ccccc3c2)cc(OC)c1OC [PNR-5-10]", "> 100 µM"],
  ["COc1cc(OC)cc(/C(C#N)=C/c2ccc3ccccc3n2)c1 [PNR-4-84]", "> 100 µM"],
  ["COc1cc(/C(C#N)=C/c2ccc3ccccc3n2)cc(OC)c1OC [PNR-4-90]", "> 100 µM"],
  ["COc1cc(/C=C/c2cc3ccccc3o2)cc(OC)c1OC [Formula (I)(c)]", "> 100 µM"],
  ["COc1cc(/C=C/c2nc3ccccc3s2)cc(OC)c1OC [Formula (I)(d)]", "81.5 µM"],
  ["COc1cc(OC)cc(/C(C#N)=C/c2cnc3ccccc3c2)c1 [PNR-4-85]", "> 100 µM"],
  ["COc1cc(OC)cc(/C(C#N)=C/c2c[nH]c3ccccc23)c1 [Formula (I)(b)]", "> 100 µM"]
]}

Now let's try a different one.
What the record says about COc1cc(/C(C#N)=C\c2cc3ccccc3s2)cc(OC)c1OC [Formula (I)(a)] : CC50 is > 100 µM

---

Reported values: GI50 for HT29, one per item.
Dear colleague, please return just the value in nM, with no unit written.

Memo: COc1cc(/C=C/c2cc3ccccc3o2)cc(OC)c1OC [Formula (I)(c)] , reported GI50: 0.37

Quick note, GI50 for COc1cc(/C(C#N)=C/c2ccc3ccccc3n2)cc(OC)c1OC [PNR-4-90] landed at 240

Entry under test: COc1cc(OC)cc(/C(C#N)=C/c2cnc3ccccc3c2)c1 [PNR-4-85] . Its GI50 was 362

What the record says about COc1cc(/C=C/c2nc3ccccc3s2)cc(OC)c1OC [Formula (I)(d)] : GI50 is 0.038

Entry COc1cc(OC)cc(/C(C#N)=C/c2ccc3ccccc3n2)c1 [PNR-4-84] — recorded GI50 = 367

The compound listed as COc1cc(OC)cc(/C(C#N)=C/c2c[nH]c3ccccc23)c1 [Formula (I)(b)] has a reported GI50 of 38.4

Lab book: GI50 of COc1cc(/C(C#N)=C/c2cnc3ccccc3c2)cc(OC)c1OC [PNR-5-10] noted as 421

---

system: MCF7; assay: NCI growth inhibition and cytotoxicity screen, Breast Cancer panel; details: Homo sapiens, MCF7
Assign labels as follows, please: yes (1) for GI50 below 40 nM; no (0) for GI50 equal to or exceeding 40 nM.

Worked cases, answers included:
{"columns": ["MOLECULE", "ANSWER LABEL"],
 "data": [
  ["COc1cc(/C=C/c2nc3ccccc3s2)cc(OC)c1OC", "yes (1)"],
  ["COc1cc(/C(C#N)=C/c2ccc3ccccc3n2)cc(OC)c1OC", "no (0)"],
  ["COc1cc(OC)cc(/C(C#N)=C/c2c[nH]c3ccccc23)c1", "no (0)"],
  ["COc1cc(/C(C#N)=C\\c2cc3ccccc3s2)cc(OC)c1OC", "yes (1)"],
  ["COc1cc(/C=C/c2cc3ccccc3o2)cc(OC)c1OC", "yes (1)"],
  ["COc1cc(OC)cc(/C(C#N)=C/c2cnc3ccccc3c2)c1", "no (0)"],
  ["COc1cc(/C(C#N)=C/c2cnc3ccccc3c2)cc(OC)c1OC", "no (0)"]
]}

**Query** Just wondering, is GI50 of COc1cc(OC)cc(/C(C#N)=C/c2ccc3ccccc3n2)c1 below 40 nM?
**Result** no (0)

---

In what follows, each item is paired with its GI50 for UO-31.
Give the value in nM but do not write nM after it.

Sample answers from the record:
{"columns": ["MOLECULE", "MEASURED ENDPOINT", "UNIT STRING", "QUANTITATIVE READOUT"],
 "data": [
  ["COc1cc(/C(C#N)=C/c2ccc3ccccc3n2)cc(OC)c1OC", "GI50", "nM", 762],
  ["COc1cc(OC)cc(/C(C#N)=C/c2ccc3ccccc3n2)c1", "GI50", "nM", 573],
  ["COc1cc(/C=C/c2cc3ccccc3o2)cc(OC)c1OC", "GI50", "nM", 1.15],
  ["COc1cc(/C(C#N)=C/c2cnc3ccccc3c2)cc(OC)c1OC", "GI50", "nM", 580]
]}

Could you now consider this next molecule?
Looking up COc1cc(/C=C/c2nc3ccccc3s2)cc(OC)c1OC , I found its GI50 recorded as 0.37
